The origin of these recorded values is patent US20250034173A1.

- system_under_test: KRAS G12D (Homo sapiens (Human), UniProt P01116, G12D)
- Sequence (P01116 other isoform, or with tags, fused parts or gaps G12D): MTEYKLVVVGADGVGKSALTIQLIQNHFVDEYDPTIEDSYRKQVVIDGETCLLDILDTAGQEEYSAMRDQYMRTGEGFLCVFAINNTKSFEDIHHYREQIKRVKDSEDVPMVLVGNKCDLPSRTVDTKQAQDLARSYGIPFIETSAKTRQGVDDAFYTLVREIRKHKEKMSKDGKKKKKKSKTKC
- protocol_summary: SPR binding affinity and kinetics, GTPγS-loaded KRAS G12D
- assay_context: GTPγS loaded protein, geomean
readout: Kd (nM)

* COC/C=C1\CN2CCC[C@@]2(COc2nc3c4c(nc(-c5c6c(cc7[nH]ncc57)CCC[C@H]6OC)c(F)c4n2)OC[C@@H]2COCCCN32)C1 (single isomer, unassigned) [Example 58] | 74
* C=C1CN2CCC[C@@]2(COc2nc3c4c(nc(-c5c(C6(C)CC6)c(Cl)cc6[nH]ncc56)c(F)c4n2)OC[C@@H]2COCCCN32)C1 | 1
* Fc1c(-c2c(C3CC3)c(Cl)cc3[nH]ncc23)nc2c3c(nc(OC[C@]45CCCN4CC4(CC4)C5)nc13)N1CCCOC[C@H]1CO2 | 6
* C=C1CN2CCC[C@@]2(COc2nc3c4c(nc(-c5c(C6CC6)c(Cl)cc6[nH]ncc56)c(F)c4n2)OC[C@@H]2COCC[C@H](C)N32)C1 | 2
* C=C1CN2CCC[C@@]2(COc2nc3c4c(nc(-c5c(Cl)c(Cl)cc6[nH]ncc56)c(F)c4n2)OC[C@@H]2COCCCN32)C1 | 19
